Origin of values: patent US5202351A

Tested on: cholesterol level in the serum
Assay: effect of reducing a lipid level in blood (serum cholesterol) in hamsters fed diet containing 1% cholesterol and 0.5% cholic acid
Format: in vivo, golden hamster (male)
Settings: Mesocricetus auratus, po, once a day, percent inhibition of serum cholesterol relative to control; 1 mg/10 ml water/kg orally once a day, blood taken on fifth day 3 h after final administration; read-out: Reduction of Cholesterol in Blood
Protocol: The effect of reducing a lipid level in blood by the action of the compounds according to the present invention was determined as follows: Male golden hamsters weighing from 80 to 100 g were randomly divided into groups. […] At the same time, the compounds of the invention formulated in a shown dose (1 mg/10 ml water/kg) were administrated to the hamsters orally once a day at a determined time. […]
Field: inhibition in vivo at 1 mg/kg. Provide a value for each of the molecules that follow.
Numbers only, in %.

molecule="CCCCCCC(CNC(=O)Nc1c(C(C)C)cccc1C(C)C)c1ccc2c(c1)OCCO2 (stereo not shown) [Example 25]" test_readout="inhibition in vivo at 1 mg/kg" reported_result=39
molecule="CCCCC(CNC(=O)Nc1c(C(C)C)cccc1C(C)C)c1ccc2c(c1)OCCCO2 (stereo not shown) [Example 26]" test_readout="inhibition in vivo at 1 mg/kg" reported_result=40
molecule="CCCCCC(C)(CNC(=O)Nc1c(C(C)C)cccc1C(C)C)c1cccc2c1OCO2 (stereo not shown) [Example 29]" test_readout="inhibition in vivo at 1 mg/kg" reported_result=61

Next:
Data request: Look at this molecule and give its reported inhibition in vivo at 1 mg/kg. CC(C)c1cccc(C(C)C)c1NC(=O)NCC1(c2cccc3c2OCO3)CCCCC1 [Example 13]
Data returned: 19

###

Field: inhibition in vivo at 1 mg/kg. Provide a value for each of the molecules that follow.
Tested on: cholesterol level in the serum
Experiment: effect of reducing a lipid level in blood (serum cholesterol) in hamsters fed diet containing 1% cholesterol and 0.5% cholic acid
Format: in vivo, golden hamster (male)
Conditions: Mesocricetus auratus, po, once a day, percent inhibition of serum cholesterol relative to control; 1 mg/10 ml water/kg orally once a day, blood taken on fifth day 3 h after final administration; read-out: Reduction of Cholesterol in Blood
Give bare numbers, in %.

The cases that follow already have their inhibition in vivo at 1 mg/kg on record.
molecule="CCCCCC(CNC(=O)Nc1c(C(C)C)cccc1C(C)C)c1ccc2c(c1)OCCO2 (stereo not shown) [Example 24]" reported_result=41
molecule="CCCCCC(CNC(=O)Nc1c(C(C)C)cccc1C(C)C)c1ccc2c(c1)OCO2 (stereo not shown) [Example 18]" reported_result=33
molecule="CCCCC(CNC(=O)Nc1c(C(C)C)cccc1C(C)C)c1cccc2c1OCCO2 (stereo not shown) [Example 14]" reported_result=30

Next:
Data request: Look at this molecule and give its reported inhibition in vivo at 1 mg/kg. CCC(CC)(CNC(=O)Nc1c(C(C)C)cccc1C(C)C)c1cccc2c1OCO2 [Example 11]
Data returned: 31

###

Tested on: cholesterol level in the serum
Assay: effect of reducing a lipid level in blood (serum cholesterol) in hamsters fed diet containing 1% cholesterol and 0.5% cholic acid
Assay type: in vivo, golden hamster (male)
Conditions: Mesocricetus auratus, po, once a day, percent inhibition of serum cholesterol relative to control; 1 mg/10 ml water/kg orally once a day, blood taken on fifth day 3 h after final administration; read-out: Reduction of Cholesterol in Blood
We use 20% as the dividing line for inhibition in vivo at 1 mg/kg: on or above the line is Fulfilled, below is Not fulfilled.

Reference set, count: 5
compound="CCCCC(CNC(=O)Nc1c(C(C)C)cccc1C(C)C)c1ccc2c(c1)OCCO2 (centres unmarked)" classification=Fulfilled
compound="CCCCC(CNC(=O)Nc1c(C(C)C)cccc1C(C)C)c1ccc2c(c1)OCO2 (single isomer, unassigned; (+)) [Example 61]" classification=Fulfilled
compound=CCCCCC(CCCCC)(CNC(=O)Nc1c(C(C)C)cccc1C(C)C)c1cccc2c1OCO2 classification="Not fulfilled"
compound="CCCC(CNC(=O)Nc1c(C(C)C)cccc1C(C)C)c1ccc2c(c1)OCO2 (centres unmarked)" classification=Fulfilled
compound="CC(C)CCCC(CNC(=O)Nc1c(C(C)C)cccc1C(C)C)c1cccc2c1CCCC2 (centres unmarked)" classification=Fulfilled

Data request: Could you verify whether the entry CC(C)CCCC(CNC(=O)Nc1c(C(C)C)cccc1C(C)C)c1ccc2c(c1)OCO2 (centres unmarked) shows inhibition in vivo at 1 mg/kg of no less than 20%?
Data returned: Fulfilled

Data request: Entry CCCCCC(CNC(=S)Nc1c(C(C)C)cccc1C(C)C)c1cccc2c1OCO2 (centres unmarked) please
Data returned: Fulfilled

Data request: Entry CCCCCCC(CNC(=O)Nc1c(C(C)C)cccc1C(C)C)c1ccc2c(c1)OCO2 (centres unmarked) please
Data returned: Fulfilled

Data request: Entry CCCCC(CNC(=O)Nc1c(C(C)C)cccc1C(C)C)c1cccc2c1CCCC2 (single isomer, unassigned) [Example 65] please
Data returned: Fulfilled

Data request: Entry CCCCCC(CNC(=O)Nc1c(C(C)C)cccc1C(C)C)c1cccc2c1OCO2 (centres unmarked) please
Data returned: Fulfilled

Data request: Entry `CCCC(CCC)(CNC(=O)Nc1c(C(C)C)cccc1C(C)C)c1cccc2c1OCO2` please
Data returned: Not fulfilled

Data request: Entry CCCCC(CNC(=O)Nc1c(C(C)C)cccc1C(C)C)c1cccc2c1OCO2 (centres unmarked) please
Data returned: Fulfilled

Data request: Entry CCCCC(CNC(=O)Nc1c(C(C)C)cccc1C(C)C)c1ccc2c(c1)OCO2 (centres unmarked) [Example 17] please
Data returned: Fulfilled

Data request: Entry CCCCC(CNC(=O)Nc1c(C(C)C)cccc1C(C)C)c1cc(OC)c2c(c1)OCO2 (centres unmarked) please
Data returned: Not fulfilled

Data request: Entry `CC(C)c1cccc(C(C)C)c1NC(=O)NCC1(c2cccc3c2OCO3)CCCC1` please
Data returned: Not fulfilled

Data request: Entry CCCCCC(CNC(=O)Nc1c(C(C)C)cccc1C(C)C)c1cccc2c1CCCC2 (centres unmarked) please
Data returned: Fulfilled

Data request: Entry CCCCC(CNC(=O)Nc1c(C(C)C)cccc1C(C)C)c1cccc2c1CCCC2 (centres unmarked) [Example 55] please
Data returned: Fulfilled

###

IC50, ACAT (Mesocricetus auratus, UniProt A0A1U8BU94), per-entry values.
Answers are plain numbers, in nM.

molecule="CCCCCC(CNC(=O)Nc1c(Cl)cccc1Cl)c1cccc2c1OCO2 (stereo not shown)" test_readout=IC50 value_units=nM reported_result=34
molecule="CCCCCC(CNC(=O)Nc1c(C(C)C)cccc1C(C)C)c1cccc2c1OCO2 (single isomer, unassigned) [Example 64]" test_readout=IC50 value_units=nM reported_result=12
molecule="CCCCCC(CNC(=O)Nc1c(C(C)C)cccc1C(C)C)c1cccc2c1OCO2 (single isomer, unassigned) [Example 63]" test_readout=IC50 value_units=nM reported_result=5
molecule="CCCCC(CNC(=O)Nc1c(C(C)C)cccc1C(C)C)c1cccc2c1CCCC2 (single isomer, unassigned) [Example 66]" test_readout=IC50 value_units=nM reported_result=28
molecule="CCCCC(CNC(=O)Nc1c(C(C)C)cccc1C(C)C)c1cccc2c1CCCC2 (single isomer, unassigned) [Example 65]" test_readout=IC50 value_units=nM reported_result=12

Hi there! I need IC50 for each item below, if you can.
1. CCCCCC(CNC(=O)Nc1c(CC)cccc1C(C)CC)c1cccc2c1OCO2 (stereo not shown)
2. CCCC(CNC(=O)Nc1c(C(C)C)cccc1C(C)C)c1cccc2c1OCO2 (stereo not shown)

Data returned:
1. 26
2. 56
